System Name: HCV NS3 helicase NS3h_1b(con1) (Hepatitis C virus genotype 1b)
Construct: truncated C-terminally His-tagged NS3 proteins lacking the N-terminal protease, called NS3h; His-tag (C); made in house
Assay Info: MBHA screen of NCI mechanistic set library at 20 μM (percent inhibition, compound interference)
Type: biochemical
Recorded Conditions: compounds at 20 μM, MBHA with DNA substrate; calculated from Equation 1
Catalogue of compounds with associated Inh. (%) (Inhibition)
Parameter Measured: Inh. (%) (Inhibition)

1) COc1ccc(Cc2nc3ccccc3s2)cc1OC [Compound 632233]; −2.7
2) C=C1C(=O)C23CC[C@@H]4C(C)(C(=O)OC)CCCC4(C)[C@@H]2CCC1(O)C3 (stereo partly drawn) [Compound 620358]; −10.5
3) CO[C@H]1Nc2c(ccc(C)c2O)C(=O)N2C=C(/C=C/C(N)=O)C[C@@H]12 [Compound 106408]; 22.7
4) Cc1cc(NCCCCCCCNc2cc(C)nc3cc(N)ccc23)c2ccc(N)cc2n1 [Compound 273829]; 105.0
5) c1ccc(-c2cccc(-c3ccccn3)n2)nc1 [Compound 3905]; 5.7
6) COc1cc([C@@H]2c3cc4c(c(O)c3C[C@H]3COC(=O)[C@@H]32)OCO4)cc(OC)c1O [Compound 24817]; 15.4
7) CCN(CCO)CCNc1ccc(C)c2sc3ccccc3c(=O)c12 [Compound 20534]; 15.7
8) NC(=O)c1c([N+](=O)[O-])cc(C(F)(F)F)cc1[N+](=O)[O-] [Compound 622640]; −13.4
9) Cc1cc(=O)[nH]c(NN2C(Cl)C(=O)C2c2cccc(Cl)c2)n1 (stereo not drawn) [Compound 653012]; 17.7

----------
System Name: HCV NS3 helicase NS3h_1b(con1) (Hepatitis C virus genotype 1b)
Construct: truncated C-terminally His-tagged NS3 proteins lacking the N-terminal protease, called NS3h; His-tag (C); made in house
Assay Info: MBHA screen of NCI mechanistic set library at 20 μM (percent inhibition, compound interference)
Type: biochemical
Recorded Conditions: compounds at 20 μM, MBHA with DNA substrate; calculated from Equation 1
Recorded measurements of Inh. (%) (Inhibition), one per entry
Parameter Measured: Inh. (%) (Inhibition)

1. CC(C)C1(Cl)CCC2C3(C)CCCC(C)(C(=O)O)C3CC(Cl)C2(Cl)C1Cl (centres unmarked); −12.5
2. Cc1ccc(NC(=S)C#N)c(C)c1; −0.4
3. CC1(C)C(O)OC(O)C1(C)C (centres unmarked); 19.1
4. O=C1N[C@H]2[C@H](O)[C@H](O)[C@@H](O)[C@H](O)[C@@H]2c2cc3c(c(O)c21)OCO3; −10.2
5. COc1cc(C[C@H]2c3cc(OC)c(OC)cc3CCN2C)c(Oc2cc3c(cc2OC)-c2c(OC)c(OC)cc4c2[C@H](C3)N(C)CC4)cc1OC; 23.1
6. Cc1[nH]c(=O)nc(N/N=C/c2ccc(Cl)cc2)c1C(=O)Nc1ccc(Cl)cc1; −14.2
7. CC[C@]1(O)C[C@H]2CN(CCc3c([nH]c4ccccc34)[C@@](C(=O)OC)(c3cc4c(cc3OC)N(C=O)[C@H]3[C@@](O)(C(=O)OC)[C@H](OC(C)=O)[C@]5(CC)C=CCN6CC[C@]43[C@@H]65)C2)C1; −16.1
8. CC(C)C1=CC2=CC[C@@H]3[C@](C)(CCC[C@@]3(C)C(=O)O)[C@H]2CC1; −11.6
9. Cc1ccc(S(=O)(=O)ON=C2CC(c3ccccc3)N(C)C(c3ccccc3)C2)cc1 (centres unmarked); 25.4
10. O=C1/C(=C/c2cccs2)Oc2ccccc21; 1.5
11. COC1/C=C/OC2(C)Oc3c(C)c(O)c4c(c3C2=O)C(=O)C=C(NC(=O)/C(C)=C\C=C\C(C)C(OC=O)C(C)C(O)C(C)C(OC(C)=O)C1C)C4=O (centres unmarked); −18.3
12. CC(C)(C)c1ccc(O)c(CN(Cc2cc(C(C)(C)C)ccc2O)C2CCCCC2)c1; 2.1
13. CC1(c2cccc3ccccc23)OC(=O)c2ccccc21 (centres unmarked); −9.3
14. Cc1ccccc1NC(=O)C(=O)C(c1cnc2ccc([N+](=O)[O-])cc2n1)[N+](=O)[O-] (centres unmarked); 17.3
15. Cc1cc2c(cc1C)[n+](=O)c(C(=O)/C=C/c1ccccc1[N+](=O)[O-])c(C)n2[O-]; −10.4
16. COc1cc2cc(c1Cl)N(C)C(=O)C[C@H](OC(=O)[C@H](C)N(C)C(C)=O)[C@]1(C)O[C@H]1[C@H](C)[C@@H]1C[C@@](O)(NC(=O)O1)[C@H](OC)/C=C/C=C(\C)C2; 0.3
17. CCC1CN2CCc3cc(OC)c(OC)cc3C2CC1CC1c2cc(OC)c(OC)cc2CCN1C(=O)C(Cc1c[nH]c2ccccc12)NC(=O)OC(C)(C)C (centres unmarked); −9.3

----------
System Name: HCV NS3 helicase NS3h_1b(con1) (Hepatitis C virus genotype 1b)
Construct: truncated C-terminally His-tagged NS3 proteins lacking the N-terminal protease, called NS3h; His-tag (C); made in house
Assay Info: MBHA screen of NCI mechanistic set library at 20 μM (percent inhibition, compound interference)
Assay type: biochemical
Recorded Conditions: compounds at 20 μM, MBHA with a DNA substrate; calculated from Equation 1
Positions of bridges follow the written chain, without caps; N, C: chain ends. Non-standard residues stand in square brackets, D forms with d. Residues, ends and D or L forms follow the SMILES beside them. ξ: configuration not given here. *: point of attachment. ξNMePhe(4-NMe2) = CNC(Cc1ccc(N(C)C)cc1)C(=O)O; Picolinoyl(3-OH) = O=C(c1ncccc1O)*; ξPip(4-oxo) = O=C1CCNC(C(=O)O)C1; Phg = N[CH](C(=O)O)c1ccccc1; Abu = CC[CH](N)C(=O)O
Parameter Measured: Inh. (%) (Inhibition)

1. C/C(=N\N=C(/[Se])N1CC2CCC(CC2)C1)c1ccccn1 [Compound 323241]; 10.7
2. CC(=O)c1ccc(Oc2ccc(/C(C)=N/N=C(N)N)cc2)cc1.O=[N+]([O-])O [Compound 97911]; 11.5
3. Cc1ccc(NC(=O)c2cccc([N+](=O)[O-])c2O)c([N+](=O)[O-])c1 [Compound 82025]; 10.4
4. CC1=C/C(=N\OCC(=O)O)CC(c2ccc(C(C)C)cc2)C1 (centres unmarked) [Compound 680506]; 10.2
5. CN(C)c1cccc(/C=C(\C#N)c2ccccc2)c1 [Compound 667251]; −7.0
6. CC[C@H]1CN2CCc3cc(OC)c(OC)cc3[C@@H]2C[C@@H]1C[C@H]1NCCc2cc(O)c(OC)cc21 [Compound 32944]; −28.9
7. O=C1C=C(NCCc2ccccc2)c2ccccc2C1=O [Compound 637731]; −5.3
8. CCN(CC)CCOc1ccc(C(O)(Cc2ccc(OC)cc2)c2ccccc2)cc1 (centres unmarked) [Compound 19857]; 7.4
9. O=[N+]([O-])c1cc(-c2nc(=S)[nH][nH]2)ccc1O [Compound 635563]; −6.8
10. CCCCCCCCCCCCCCCCCCN(C)C(COC)COP(=O)([O-])OCC[N+](C)(C)C (centres unmarked) [Compound 643826]; −3.8
11. Cl.Nc1ccn([C@@H]2O[C@H](CO)[C@@H](O)[C@@H]2O)c(=O)n1 [Compound 63878]; 8.3
12. CCN(CC)CCCC(C)Nc1ccnc(/C=C/c2ccc(Cl)cc2)c1 (centres unmarked) [Compound 157389]; 10.6
13. CC1=C\C(O)CC(=O)Cc2nc(co2)C(=O)N2CCC=C2C(=O)OC(C(C)C)C(C)/C=C/C(=O)NC/C=C\1.CCC1NC(=O)C(NC(=O)c2ncccc2O)C(C)OC(=O)C(c2ccccc2)NC(=O)C2CC(=O)CCN2C(=O)C(Cc2ccc(N(C)C)cc2)N(C)C(=O)C2CCCN2C1=O (centres unmarked) [Compound 125176] ({Picolinoyl(3-OH)}-T[Abu]P[ξNMePhe(4-NMe2)][ξPip(4-oxo)][Phg]; ester 1-C; configuration not given here); −20.2
14. CNC(=S)N/N=C/c1ccc([N+](=O)[O-])s1 [Compound 169543]; 9.6

----------
System Name: HCV NS3 helicase NS3h_1b(con1) (Hepatitis C virus genotype 1b, UniProt Q9WMX2)
Construct: truncated C-terminally His-tagged NS3 proteins lacking the N-terminal protease, called NS3h; His-tag (C); made in house
Sequence (Q9WMX2 1192-1657): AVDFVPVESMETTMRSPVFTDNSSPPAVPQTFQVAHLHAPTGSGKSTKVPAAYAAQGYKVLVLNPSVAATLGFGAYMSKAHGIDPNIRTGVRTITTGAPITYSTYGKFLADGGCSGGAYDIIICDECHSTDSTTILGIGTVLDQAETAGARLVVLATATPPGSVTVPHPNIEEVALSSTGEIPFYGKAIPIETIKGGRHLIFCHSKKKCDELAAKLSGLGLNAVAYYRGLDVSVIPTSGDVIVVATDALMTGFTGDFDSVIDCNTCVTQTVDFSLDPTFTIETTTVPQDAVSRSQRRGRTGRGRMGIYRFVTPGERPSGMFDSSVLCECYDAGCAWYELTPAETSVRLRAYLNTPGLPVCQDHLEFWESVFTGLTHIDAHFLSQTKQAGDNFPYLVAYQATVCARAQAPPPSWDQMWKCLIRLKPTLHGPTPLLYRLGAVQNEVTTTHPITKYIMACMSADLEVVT
Assay Info: biochemical
Type: biochemical, hepatitis C virus genotype 1b(con1)
Recorded Conditions: standard HCV helicase MBHA (Table 9); read-out: DNA Unwinding IC50
pIC50: −log10 of the molar value.
This section presents compounds with their documented pIC50 values.
Parameter Measured: pIC50

1) Cc1ccc(C(=O)Nc2ccc(-c3nc4ccc(-c5nc6ccc(C)c(S(=O)(=O)O)c6s5)cc4s3)cc2)cc1; 5.52
2) COc1ccc(S(=O)(=O)Nc2ccc(-c3nc4ccc(-c5nc6ccc(C)c(S(=O)(=O)O)c6s5)cc4s3)cc2)cc1; 4.62
3) Cc1ccc2nc(-c3ccc4nc(-c5ccc(N)cc5)sc4c3)sc2c1S(=O)(=O)O; 5.22
